Answer each item with its documented IC50.
- Test system: HN5 tumor cells
- EXPERIMENT_SUMMARY: Method B: CellTiter-Glo Growth Inhibition Assay, HN5
- Format: cell-based
- ASSAY_SETUP: Homo sapiens, 72 h, 3 days
Where a name gives a salt, the structure may show the parent alone.

Query :: Tell me its IC50 given Nc1nc(-c2cccc(NC(=O)c3c(F)cccc3F)c2)c(-c2ccnc(Nc3cccc(CCS(N)(=O)=O)c3)n2)s1 as the entry.
Result :: < 100 nM

Query :: Please give measured IC50 of the following entry: CN(C)Cc1cccc(Nc2nccc(-c3scnc3-c3cccc(NC(=O)Cc4cccs4)c3)n2)c1
Result :: 100 to 1000 nM

Query :: Please report IC50 for the following compound: COc1ccc(Nc2nccc(-c3scnc3-c3cccc(NC(=O)Cc4cccs4)c3)n2)cc1OCCN(C)C
Result :: 100 to 1000 nM

Query :: Give IC50 for Nc1nc(-c2cccc(NC(=O)Cc3cccs3)c2)c(-c2ccnc(Nc3cccc(F)c3)n2)s1
Result :: 100 to 1000 nM

Query :: Identify the reported IC50 for the following entry. COc1ccc(Nc2nccc(-c3sc(N)nc3-c3cccc(NC(=O)c4c(F)cccc4F)c3)n2)cc1N(C)C
Result :: < 100 nM

Query :: Fill in IC50 for record Cc1cc(-c2sc(N)nc2-c2cccc(NC(=O)c3c(F)cccc3F)c2)nc(Nc2cccc(OCCN(C)C)c2)n1
Result :: 100 to 1000 nM

Query :: Quick one: give measured IC50 for CCN(CC)CCOc1cccc(Nc2nccc(-c3scnc3-c3cccc(NC(=O)c4c(F)cccc4F)c3)n2)c1
Result :: < 100 nM

Query :: Give reported IC50 value for O=C(Cc1cccs1)Nc1cccc(-c2ncsc2-c2ccnc(Nc3ccc4c(c3)NC(=O)CO4)n2)c1 [Example 86, hydrochloride]
Result :: 100 to 1000 nM

Query :: Read the entry CCN(CC)CCOc1cccc(Nc2nccc(-c3scnc3-c3cccc(NC(=O)Cc4cccs4)c3)n2)c1 and write its reported IC50.
Result :: 100 to 1000 nM

Query :: Determine its reported IC50: Nc1nc(-c2cccc(NC(=O)c3c(F)cccc3F)c2)c(-c2ccnc(Nc3ccc4c(c3)NC(=O)CO4)n2)s1
Result :: < 100 nM

Query :: Give reported IC50 value for O=C(Nc1cccc(-c2ncsc2-c2ccnc(Nc3ccc4c(c3)CNCC4)n2)c1)c1c(F)cccc1F
Result :: < 100 nM

Query :: Specify IC50 for O=C1COc2ccc(Nc3nccc(-c4scnc4-c4cccc(NC(=O)c5cc(F)ccc5F)c4)n3)cc2N1 [Example 99, hydrochloride] and stop.
Result :: 100 to 1000 nM

Query :: # return recorded IC50 for entry O=C1COc2cc(Nc3nccc(-c4scnc4-c4cccc(NC(=O)c5cc(F)ccc5F)c4)n3)ccc2N1 [Example 98, hydrochloride]
Result :: < 100 nM

Query :: Annotate the compound Cc1nc(-c2cccc(NC(=O)Cc3cccs3)c2)c(-c2ccnc(Nc3cccc(F)c3)n2)s1 with its measured IC50.
Result :: > 1000 nM

###

- Tested on: Colo205 tumor cells
- EXPERIMENT_SUMMARY: Method B: CellTiter-Glo Growth Inhibition Assay, Colo205
- Format: cell-based
- ASSAY_SETUP: Homo sapiens, COLO 205, 72 h, 3 days
pIC50: −log10 of the molar value. Structures can show the parent of a compound that is named as a salt.
OBSERVED_PROPERTY: pIC50

Query :: Quick one: give measured pIC50 for O=C(Nc1cccc(-c2ncsc2-c2ccnc(Nc3ccc4c(c3)CNCC4)n2)c1)c1c(F)cccc1F
Result :: 6.00 to 7.00

Query :: // Input: Nc1nc(-c2cccc(NC(=O)Cc3cccs3)c2)c(-c2ccnc(Nc3cccc(F)c3)n2)s1 . Output its pIC50 only.
Result :: < 6.00

Query :: Report pIC50 for O=C1COc2cc(Nc3nccc(-c4scnc4-c4cccc(NC(=O)c5cc(F)ccc5F)c4)n3)ccc2N1 [Example 98, hydrochloride]
Result :: < 6.00

Query :: Identify measured pIC50 associated with COc1ccc(Nc2nccc(-c3sc(N)nc3-c3cccc(NC(=O)c4c(F)cccc4F)c3)n2)cc1N(C)C
Result :: 6.00 to 7.00
